Where these numbers come from: patent US6011000A

# Tested on: human erythroid cells
# Test Details: DNA fragmentation by flow cytometry (degradation of DNA)
# Assay type: cell-based
# Assay Setup: 1.0 mM to 2.0 mM; untreated 26%
Measured proportion of degraded DNA, listed per entry.
Your answer is read as %, so omit the unit and give the number.

Worked cases, answers included:
Enquiry: Tell me the measured proportion of degraded DNA of CCCC(=O)O [AB, arginine butyrate] , please.
Return: 44

Enquiry: Next molecule: CC(C)C(N)=O [IBT, isobutyramide]
Return: 44

Enquiry: Next molecule: `O=C(O)COc1ccccc1`
Return: 20.6

***
Enquiry: Tell me the measured proportion of degraded DNA of `CCCC(=O)OCC` , please.
Return: 13.8
